- Tested on: 217524-143-R1-J4-PDC spheroids with HUVEC/MSC, viability;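 note: spheroids exposed to agents for seven days before reading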
- test_summary: Anticancer human tumor 217524-143-R1-J4-PDC patient-derived pancreatic carcinoma cell line growth inhibition [CLK]
- run_parameters: second compound 0.0316 µM; first compound 0.1 µM; hits give low values
Just a reminder that ties go to False: only viability, T/C strictly below 80% counts as True.

Solved cases (4 shown):
>>> discrete_label("CC1COCCN1c1cc(C2(S(C)(=N)=O)CC2)nc(-c2ccnc3[nH]ccc23)n1 (configuration not stated) + CNC(=O)c1ccc(Nc2nc(OC3CCCC3)c3c(-c4ccc5nc(C)oc5c4)c[nH]c3n2)c(OC)c1")
"False"
>>> discrete_label("CCN1CCN(Cc2ccc(Nc3ncc(F)c(-c4cc(F)c5nc(C)n(C(C)C)c5c4)n3)nc2)CC1 + CN1CCN(c2cc(C(=O)Nc3cc4cc(-c5cnn(C)c5)ccc4cn3)ccn2)CC1")
"True"
>>> discrete_label("COc1c(OCCCN2CCOCC2)ccc2c3n(c(=NC(=O)c4cnc(N)nc4)nc12)CCN3 + CNC(=O)c1ccc(Nc2nc(OC3CCCC3)c3c(-c4ccc5nc(C)oc5c4)c[nH]c3n2)c(OC)c1")
"True"
>>> discrete_label("Nc1ccccc1NC(=O)c1ccc(CNC(=O)OCc2cccnc2)cc1 + CN1CCN(c2cc(C(=O)Nc3cc4cc(-c5cnn(C)c5)ccc4cn3)ccn2)CC1")
"False"

Please find the next molecule below.
-- ask Just wondering, is viability, T/C of C=CC(=O)N1CCN(c2nc(=O)n(-c3c(C)ccnc3C(C)C)c3nc(-c4c(O)cccc4F)c(F)cc23)C(C)C1 (configuration not stated) + CNC(=O)c1ccc(Nc2nc(OC3CCCC3)c3c(-c4ccc5nc(C)oc5c4)c[nH]c3n2)c(OC)c1 below 80%?
-- reply False
